# TESTED_TARGET: T1, IL-18 receptor (IL-18Rα and IL-18Rβ) (UniProt Q13478 19-541; O95256 20-599, limits assumed)
# T1 sequence (looked up) 1: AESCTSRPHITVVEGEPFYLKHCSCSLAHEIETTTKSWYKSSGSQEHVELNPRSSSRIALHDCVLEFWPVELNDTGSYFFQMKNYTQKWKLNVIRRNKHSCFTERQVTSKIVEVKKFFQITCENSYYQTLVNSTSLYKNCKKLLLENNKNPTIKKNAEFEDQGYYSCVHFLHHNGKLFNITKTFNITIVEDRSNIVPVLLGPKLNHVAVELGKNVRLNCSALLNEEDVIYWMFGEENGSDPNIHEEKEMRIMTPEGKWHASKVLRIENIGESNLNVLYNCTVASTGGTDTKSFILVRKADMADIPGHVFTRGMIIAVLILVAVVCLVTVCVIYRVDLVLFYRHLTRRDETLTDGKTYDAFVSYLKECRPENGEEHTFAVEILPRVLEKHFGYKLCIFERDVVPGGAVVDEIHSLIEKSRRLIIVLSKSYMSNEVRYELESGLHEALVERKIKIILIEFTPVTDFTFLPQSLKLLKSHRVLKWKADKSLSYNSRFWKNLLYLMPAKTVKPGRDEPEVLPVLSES
# T1 sequence (looked up) 2: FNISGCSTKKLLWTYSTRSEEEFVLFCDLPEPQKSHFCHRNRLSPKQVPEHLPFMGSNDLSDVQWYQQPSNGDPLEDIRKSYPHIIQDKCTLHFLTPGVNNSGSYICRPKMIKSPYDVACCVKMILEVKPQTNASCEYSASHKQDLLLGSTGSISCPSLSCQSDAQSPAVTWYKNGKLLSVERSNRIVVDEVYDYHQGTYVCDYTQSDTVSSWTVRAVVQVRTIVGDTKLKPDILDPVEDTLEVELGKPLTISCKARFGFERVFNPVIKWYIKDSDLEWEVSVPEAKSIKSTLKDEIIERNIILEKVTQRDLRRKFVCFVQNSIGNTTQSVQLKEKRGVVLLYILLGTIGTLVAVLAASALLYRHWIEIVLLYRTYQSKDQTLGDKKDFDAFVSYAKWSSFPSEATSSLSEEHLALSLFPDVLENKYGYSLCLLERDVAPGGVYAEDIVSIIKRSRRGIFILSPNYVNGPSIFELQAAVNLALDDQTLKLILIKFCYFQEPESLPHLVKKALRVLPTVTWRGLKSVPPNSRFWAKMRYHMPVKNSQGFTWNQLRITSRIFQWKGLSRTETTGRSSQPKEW
# PROTOCOL: cell-based or functional assay
Each entry below carries its reported PBMC IFN gamma EC50 relative to WT-IL18, run 1.
RESULT_TYPE: PBMC IFN gamma EC50 relative to WT-IL18, run 1

hIL18 (G3V, E6K, K53S, M60K) - KiH (Fc fusion) YFVKLKSKLSVIRNLNDQVLFIDQGNRPLFEDMTDSDMRDNAPRTIFIISMYSDSQPRGKAVTISVKSEKISTLSSENKIISFKEMNPPDNIKDTKSDIIFFQRSVPGHDNKMQFESSSYEGYFLASEKERDLFKLILKKEDELGDRSIMFTVQNED	0.07
hIL18 (G3T, K53S, M60K) - KiH (Fc fusion) YFTKLESKLSVIRNLNDQVLFIDQGNRPLFEDMTDSDMRDNAPRTIFIISMYSDSQPRGKAVTISVKSEKISTLSSENKIISFKEMNPPDNIKDTKSDIIFFQRSVPGHDNKMQFESSSYEGYFLASEKERDLFKLILKKEDELGDRSIMFTVQNED	3.36
hIL18 (G3V, K53A, M60K) - KiH (Fc fusion) YFVKLESKLSVIRNLNDQVLFIDQGNRPLFEDMTDSDMRDNAPRTIFIISMYADSQPRGKAVTISVKSEKISTLSSENKIISFKEMNPPDNIKDTKSDIIFFQRSVPGHDNKMQFESSSYEGYFLASEKERDLFKLILKKEDELGDRSIMFTVQNED	0.2
